- TGT: T1, RTEL1 HHD2 (Homo sapiens, UniProt Q9NZ71-6 1056-1140)
- T1 sequence: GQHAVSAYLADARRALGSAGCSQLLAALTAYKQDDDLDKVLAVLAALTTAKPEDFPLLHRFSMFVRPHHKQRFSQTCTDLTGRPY
- ASSAY_NAME: ITC; pH 6.5; NMR: 20 mM Tris-HCl pH 7.4, 50 mM NaCl, 2 mM DTT, 0.02% NaN3, 10% D2O, 25 C (one ssDNA-22 titration at pH 6.5); ITC: 10 mM potassium phosphate pH 6.5, 50 mM KCl, 0.02% NaN3, 25 C
- CONDITION_SET: protein: recombinant; tags: N-terminal 6xHis; blunt
ENDPOINT_LABEL: pKd
Formally, pKd is defined as -log10 of the concentration c, with c in mol/L.

What value of pKd has been reported for the following binder? dsDNA-24 (dsDNA) DNA 1: TTAGGCAGAGAGAGAGAGTTAGGC DNA 2: GCCTAACTCTCTCTCTCTGCCTAA
5.71
